Test system: UACC-62 melanoma
Assay: NCI-60 one-dose screen, 48 h
Conditions: 10 µM unless noted
The panel holds about 83,000 compounds, 20% with a hit somewhere; the sample as a whole holds those more often. Active and inactive are the calls of the source. The calls were made as follows: active = growth percent below 10; inactive = the rest.
Outcome field: choose from True for active, False for inactive

Some solved entries appear below for comparison.
COc1ccc(NC(=O)c2cc(NCc3cc(O)ccc3O)ccc2O)cc1 ... False
COc1ccc(C(=O)Nc2cccc(C3CCc4c(cc(OC)c(OC)c4OC)O3)c2)cc1 (stereo not given) ... False
CCOC(=O)/C(C#N)=C1/NNC(=Nc2cccnc2)S1 ... False
Cc1ccc(-n2cc(-c3ccccc3)c3c2N=NN2CCN=C32)cc1 ... False
COc1cc2oc(-c3cccc(C(=O)Nc4ccc(Br)cc4)c3)cc(=O)c2c(OC)c1OC ... False
C=C1C(=O)O[C@H]2[C@H]1CC/C(CNC(=O)/C=C/c1ccccc1)=C\CC[C@@]1(C)O[C@@H]21 ... True
O=C(NCCc1ccccc1)Nc1ccc2cc3ccc(NC(=O)NCCc4ccccc4)cc3nc2c1 ... True
O=C(NNc1nc2c(F)cccc2n2cccc12)c1cnccn1 ... False

Called result for `COc1cc2oc(-c3cccc(C(=O)Nc4ccccc4)c3)cc(=O)c2c(O)c1OC`
False

Test call for this compound, please: `COc1cc(-c2cc(-c3ccc(N(C)C)cc3)nc(N3CCOCC3)c2C#N)cc(OC)c1OC`
True

====

System: SK-OV-3 ovarian
Assay: NCI-60 one-dose screen, 48 h (100 = growth as untreated, 0 = no growth, -100 = all killed)
Details: 10 µM unless noted
Compounds without any hit were thinned out: in the full panel of roughly 83,000, 20% have a hit.
A collection of molecules and their measured growth
Note: unit % is implicit; provide only the numeric part.

Example cases with answers are listed next.
[O-][n+]1c(Cl)cc(Cl)c2ccccc21 ... 94.4
c1ccc(-c2c(-c3ccccc3)[n+](Cc3ccc4ccccc4c3)c(-c3cccc4ccccc34)n2Cc2ccc3ccccc3c2)cc1 ... -50.3
Cc1cc(Cl)nc(N(CCNc2ccnc3cc(Cl)ccc23)Cc2ccccn2)n1 ... 82.9

Return reported growth. Input molecule: CN1CCC(=C(c2ccccc2)c2ccccc2)C(c2ccccc2)C1 (stereo not drawn)
115

Answer with reported growth of `COc1cc(NCCCCCNC(C)(C)C)c2ncccc2c1`
97

Tell me measured growth for `COc1cc2c(c(O)c1Br)C(=O)c1c(O)cc(C[C@H](C)O)cc1[C@H]2[C@H]1c2cc(C[C@H](C)O)cc(O)c2C(=O)c2c1cc(OC)c(Br)c2O` please.
8.82

====

List of growth values.
Test system: OVCAR-8 ovarian
Experiment: NCI-60 one-dose screen, 48 h (100 = growth as untreated, 0 = no growth, -100 = all killed)
Conditions: 10 µM unless noted
Compounds without any hit were thinned out: in the full panel of roughly 83,000, 20% have a hit.
Value expressed in %; do not type the unit.

In the examples that follow, each entry is paired with its recorded growth.
N#CC1=C(/N=C/c2ccccc2)Oc2c(ccc3ccccc23)C1c1ccc([N+](=O)[O-])cc1 (stereo not given) ... 95
COc1cc(-c2n/c(=C\c3c(O)[nH]c4ccc(Cl)cc34)cc3c2=Nc2ccccc2-3)ccc1F ... -50.7
Cc1ccc(NS(=O)(=O)c2ccc(-c3cnc(C4CC4)o3)cc2)cc1C(F)(F)F ... 78.5
CCOc1cccc(-c2nc(N)nc(Nc3ccccc3SSc3ccccc3Nc3nc(N)nc(-c4cccc(OCC)c4)n3)n2)c1 ... 59.9

// moving on: another record for growth
Output growth of `NS(=O)(=O)c1ccc(Cn2c(SCC(=O)N/N=C/c3ccccc3O)nc3ccccc3c2=O)cc1`
44.3
